# assayed-system: SARS-CoV-2 RBD (RBD-2) (SARS-CoV-2)
# protocol-description: SPR, Fc-captured IgG
Kindly supply the reported Kd values for the records listed here.
Answers are plain numbers, in nM.

L12.cP08D07 (antibody, V domains shown, human IgG1) VH: QVQLQESGPGLVKPSETLSLTCTVSGGSISSSSYYWGWIRQPPGKGLEWIGSIYYSGSTYYNPSLKSRVTISVDTSKNQFSLKLSSVTAADTAVYYCARQGDCSTTSCAYDYWGQGTLVTVSS VL: SYELTQPPSVSVSPGQTARITCSGDALPKQYAYWYQQKPGQAPVLVIYKDSERPSGIPERFSGSSSGTTATLTISGVQAEDEADYYCQSADSSGTYLVVFGGGTKLAVL ... 26.8

# context switch: different binder, same Kd
Entry under test: L12.bP11C10 (antibody, V domains shown, human IgG1) VH: QVQLVQSGAEVKKPGASVKVSCKASGYIFSGYYMHWVRQAPGQGLEWMGWISPDSGGTNYAQKFQGRVTMTRDTSITTGYMELSGLRSDDTAVYYCARGPRYSGTYFDYWGQGTLVTISS VL: QSALTQPTSVSGSPGQSITISCTGTSSDVGGYNYVSWYQQHPGKAPKLIIYDVSNRPSGVSNRFSGSKSGNTASLTISGLQAEDEADYYCSSYTVSSTQVFGGGTKLTVL . Its Kd was 255
